# System: MS2 coat protein
# method summary: apparent Kd, MS2 coat protein; higher = weaker binding; RNA-MaP array
# conditions used: designed as: OFF switch for flavin mononucleotide; no ligand
Below: a set of entries, each annotated with reported apparent Kd.
Output spec: scalar in nM, unitless text.

CCUUAGUGAGGAUAUGCAUAGCCUUGGCGGCCAGGAGCCAAGCAGAAGGCACAUGAGGAUCACCCAUGUCCGGU = 16.6

### Prompt Quick one: apparent Kd for `UAAGCACAUCAGAAGGCGCAUUAGUUGAACUUGCGAGGAUAUGAUCUGUCCUCAUCAACAUGAGGAUCACCCAUGUGUCAGCUC` ?
### Response 37.6

### Prompt Note, next up: `AACAAACAUGAGGAUCACCCAUGUGAGGAUAUCAAGUCCAUACCCUAAGAGGGAGUUUUGAGAAGGCACGUGUA`
### Response 11.2

### Prompt Note, next up: `CACAUGAGGAUCACCCAUGUCGCGGUGUGACCGAUACUCGAAUAGGAUAUGCUUGACACUUCGUGGCAGAAGGAUUGAGGUUCG`
### Response 76.6

### Prompt Note, next up: `CGGCGACAUGAGGAUCACCCAUGUUAGGAUAUUCAGUUAACUGUGUUUGAUCGUUUGAGAAGAAGGAACGUGAG`
### Response 10.7

### Prompt Note, next up: `AUAUUGUUUAUAGGAUAUUACACUAAGGUGACAUGAGGAUCACCCAUGUCCUCAACCACACGACUUAAGAAGGAUAAACGUUGG`
### Response 46.5

### Prompt Note, next up: `ACCGAUCGAGGAUAUACAGAACAAAAGAACAUGACGAAGAAACAUGAGGAUCACCCAUGUAGAAGGCGAAAAGA`
### Response 8.58

### Prompt Note, next up: `UCGCAUUCAGGAUAUACUUAAAGGUGAACUGAUCAUAGCAAACAUGAGGAUCACCCAUGUAGAAGGGAAAUAUC`
### Response 99.2

### Prompt Note, next up: `GUAUGAGAAGCAUAUACAUGAGGAUCACCCAUGUCCUCAGCGGAGGAUAUGUCUUUCAGGAGUAUACAGAAGGCCGCGGAAUUC`
### Response 346

### Prompt Note, next up: `AGUAGACGAGGAUAUACGGGCAUAUUUGAUAAGAAGAACAGACAUGAGGAUCACCCAUGUAGAAGGCGAGGCUA`
### Response 11.1

### Prompt Note, next up: `GACAUGAGGAUCACCCAUGUUAAAGAUCCCAGCAUGCAACUCAGAAGGCUAAACUGUGGAUAGAAAGAGGAUAUGAGUUUAUAC`
### Response 9.62

---

# System: MS2 coat protein
# method summary: apparent Kd, MS2 coat protein; higher = weaker binding; RNA-MaP array; theophylline 2 mM where present
# conditions used: ligand present: theophylline; designed as: OFF switch for theophylline
Lab note: anything with apparent Kd at or over 50 nM counts as t; the rest go in f.

ACGUCCCGUUUACUCGUGGGUUAGGUCGAUACCAGUAUUCAAACUUACCCUUGGCAGCGACAUGAGGAUCACCCAUGUGCGAAGA = t
GAUGAACUAUUUGAUACCAGACUACAUGAGGAUCACCCAUGUGAGUUUAUACUUCAGUCAGUCCCUUGGCAGCAAAUAGUUUAUC = t
ACAUGAAGAACAGCGGUGGGCGCGCUCGAUACCAGUACUUUGAUAUACCCUUGGCAGCGACAUGAGGAUCACCCAUGUGAGAUGA = f
GAGCUGAUGUAGAGUGGAUAUCCUUGAGAUACCAGUACAGAAAUGUACCCUUGGCAGCUCUUCUUUACAUGAGGAUCACCCAUGU = f
CUCGAGUUAUGAGAUACCAGACUAUAGUUUACAUGAGGAUCACCCAUGUUAUGGGUGGUAGUCCCUUGGCAGCUCAUAUGUUUAA = t
ACGUCUCGUUUACUCGUGGGUUAGCUCGAUACCAGUAUUCAAACUUACCCUUGGCAGCGACAUGAGGAUCACCCAUGUGCGAAGA = t
UCGCUCGCCGGAAGGCGAGCGAGUUGCGAUACCAGCCCGGAAACGGGCCCUUGGCAGCGCACAUGAGGAUCACCCAUGUCAUGUU = f
UCGACAGUGAACGAUACCAGCGUCACGUGGCCGGUGGUCACAUGAGGAUCACCCAUGUAACGCCCUUGGCAGCGUGCACGUAUCC = t

### Prompt Evaluate `UGACAUUGCUCAGAUACCAGACAUGAGGAUCACCCAUGUACCAAGGUAAAGAAAUAACGUGUCCCUUGGCAGCUGAGCAAUGUCU` : apparent Kd at minimum 50 nM?
### Response t

### Prompt Note, next up: `GAUGAUAUUGCAGAUACCAGACACAUGAGGAUCACCCAUGUCGCUGAGUUGCUGGAUCGUGUCCCUUGGCAGCUGCGAUAUCAUC`
### Response t

### Prompt Note, next up: `CGAGUCCGCUGAUGGGCUAAGUCAGGUGAUACCAGCCACUCCCGCGGCCCUUGGCAGCACAUGAGGAUCACCCAUGUAGGGCUUG`
### Response t

### Prompt Note, next up: `GAUGAUAUUGCAGAUACCAGACACAUGAGGAUCACCCAUGUCGUUGGGUCGCUGGGUCGUGUCCCUUGGCAGCUGCGAUAUCAUC`
### Response t

### Prompt Note, next up: `CGGCCCUCACAUGAGGAUCACCCAUGUGAUACCAGCCUGGAAACAGGCCCUUGGCAGCACAGGUCAUCAAAAGAUGACCAAGCCG`
### Response t

### Prompt Note, next up: `AUGCACCUCGUCCAGGCAAUCUUUAGUGAUACCAGCUAACUCCUUGGCCCUUGGCAGCACAUGAGGAUCACCCAUGUGCGACAUC`
### Response f

### Prompt Note, next up: `UGACAUUGCUCAGAUACCAGACAUGAGGAUCACCCAUGUGCCAACGUACAAAUAAUAAAUGUCCCUUGGCAGCUGAGCAAUGUCU`
### Response f

### Prompt Note, next up: `GGCUAGUGCAUCGAUACCAGCUACAUGAGGAUCACCCAUGUAGGAAGGGUGGUACUCGAUAGCCCUUGGCAGCGAACACCUCCGG`
### Response f

### Prompt Note, next up: `ACAUGAGGAUCACCCAUGUAAGGUCUUGAUACCAGACGAGAAGUAGUCCCUUGGCAGCAAAUACGUGAGGGUCACACAUGUGUAA`
### Response f

### Prompt Note, next up: `ACAUGAGGAUCACCCAUGUUCCUCAUUGAUACCAGUGAAUUUAGACGCCCUUGGCAGCGAGUUUUUUUAUAAGUUUUUUUUUUUU`
### Response t

### Prompt Note, next up: `ACAUGAGGAUCACCCAUGUUCCUCAUUGAUACCAGUGAAUUUAGACGCCCUUGGCAGCGAGUUUAAGAAGAAGAAGUUUUUUUUU`
### Response t

### Prompt Note, next up: `ACAUGAGGGAUGGAUACCAGCGACAUGAGGAUCACCCAUGUAUGAGGAUCAGCCAUGUUAUGCCCUUGGCAGCCACGAACAUCAG`
### Response t

---

# Test system: MS2 coat protein
# method summary: apparent Kd, MS2 coat protein; higher = weaker binding; RNA-MaP array
# conditions used: ligand present: flavin mononucleotide; designed as: ON switch for flavin mononucleotide
Lab note: anything with apparent Kd at or over 9 nM counts as rule met; the rest go in rule not met.

CGAGUUUGCAAAGGAUAUCGGUUUUGAACAGACCGAGAAGGUUGACUGUACAUGAGGAUCACCCAUGUGUGCUCGAUAUAAAGA = rule not met

### Prompt Evaluate `GCGUGACAUGAGGAUCACCCAUGUAGACUUGUGGAAGGAUAUACGAGAGUUCGAGUUAAGGUAGAAGGUCCCGAUG` : apparent Kd at minimum 9 nM?
### Response rule met

### Prompt Note, next up: `CGCAGACUGUUAGGAUAUGAUACUAACAUGAGGAUCACCCAUGUUUACUCAGUGGAUAAGCAGAGUCAGAAGGAACAUUACGCA`
### Response rule met

### Prompt Note, next up: `GAUGAGCGCACGGGAAUAAACAUGAGGAUCACCCAUGUCGUUAGAAGGGUAUUCGCCGGGACCAUACAGGAUAUAACGCGUCAC`
### Response rule met

---

# Test system: MS2 coat protein
# method summary: apparent Kd, MS2 coat protein; higher = weaker binding; RNA-MaP array
# conditions used: designed as: OFF switch for flavin mononucleotide; no ligand
Lab note: anything with apparent Kd at or over 10 nM counts as True; the rest go in False.

Solved cases (3 shown):
AGUCGUACCAAGAAGGUACCCGGCUAAUGGUGGUAAGGAUAUUGUACGAACCCUAACAUGAGGAUCACCCAUGUCCACAGUGGG = True
CUUGUGGCACAGGAUAUUCCGACGUAAUCAAAUGAAGAAGGGUGCACAUGAGGAUCACCCAUGUGUGAACACAA = True
UCUUCAAUAGUAAGGAUAUCCAUAACAACAUUCAAGGAGAAGGUACAUGAGGAUCACCCAUGUGGAGUCAAUAA = True

### Prompt Evaluate `GGAUUCAGAGGAUAUACAUGAGGAUCACCCAUGUCAUUCAGCCAAGAUAUGUGUUUCAGUAGAAGGCUGAUCGG` : apparent Kd at minimum 10 nM?
### Response True

### Prompt Note, next up: `UAACGCCCCUUAGGAUAUCCACGUAACCCCUCCCCCGUAAGUAGAAACAUGAGGAUCACCCAUGUGGAGAAGGAAGUGACCCGC`
### Response True

### Prompt Note, next up: `UAGUCAUCGGCAGGAUAUUCGCUAGUAGACUAUGAAGAAGGGCCACGUACCUCACAAACAUGAGGAUCACCCAUGUAUCUGGAC`
### Response True

### Prompt Note, next up: `UUAUUCCCGGAGGAUAUCGACGUAUUUGGCGCCCGAGAAGGCCGGACAUGAGGAUCACCCAUGUCCCGUGCUCU`
### Response False

### Prompt Note, next up: `AAAAUUGAAGGAUAUACAUGAGGAUCACCCAUGUGCAACAUAUUUGAAUGGCCUCACGGUAGAAGGUCAAAACG`
### Response False

### Prompt Note, next up: `GUUCAACGGUGAGGAUAUUGCAGUACGUACGCACAAGAAGGCACUCCAUAGCACAGGGUGCACAUGAGGAUCACCCAUGUGGUC`
### Response True

### Prompt Note, next up: `UAAGAGUCGGCAGGAUAUGUCCCUUGAGCGCAGACAGAAGGGCCACUAUCUUUCACAUGAGGAUCACCCAUGUCCUCCCUGGAG`
### Response True

### Prompt Note, next up: `CCCGGUGACUAGAAGGCGCCACAUGAGGAUCACCCAUGUAUCAAAGACCGGUGAUUGCCGACGGGCGAGGAUAUAGGUGCGACG`
### Response False

### Prompt Note, next up: `UGCGUCGUUUAGAAGGGAGUGGCCCAACAUGAGGAUCACCCAUGUGACGCUCAGAAUGUAUUUGCUCAGGAUAUAAAUGUCUUU`
### Response True
